- system: CDK7/Cyclin H/MAT1 complex (Homo sapiens)
- Sequence (P50613 whole entry): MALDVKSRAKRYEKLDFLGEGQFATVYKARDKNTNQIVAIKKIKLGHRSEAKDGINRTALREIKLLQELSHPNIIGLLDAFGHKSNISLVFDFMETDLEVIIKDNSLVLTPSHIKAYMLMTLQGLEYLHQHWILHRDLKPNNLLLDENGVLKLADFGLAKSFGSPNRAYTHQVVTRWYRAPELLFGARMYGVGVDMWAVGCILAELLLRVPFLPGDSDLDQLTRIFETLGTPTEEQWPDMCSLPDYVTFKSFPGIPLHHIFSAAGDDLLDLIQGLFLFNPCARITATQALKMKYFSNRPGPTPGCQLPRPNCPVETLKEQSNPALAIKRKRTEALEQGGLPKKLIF
- Sequence (P51946 whole entry partner): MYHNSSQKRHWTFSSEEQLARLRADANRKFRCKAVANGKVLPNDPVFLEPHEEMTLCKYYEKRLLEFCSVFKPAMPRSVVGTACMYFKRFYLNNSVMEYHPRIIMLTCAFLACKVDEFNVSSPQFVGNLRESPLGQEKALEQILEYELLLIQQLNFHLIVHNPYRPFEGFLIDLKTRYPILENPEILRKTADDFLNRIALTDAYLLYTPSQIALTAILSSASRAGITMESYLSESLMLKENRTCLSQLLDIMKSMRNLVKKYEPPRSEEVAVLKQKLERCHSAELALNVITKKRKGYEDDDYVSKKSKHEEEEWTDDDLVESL
- Sequence (P51948 whole entry partner): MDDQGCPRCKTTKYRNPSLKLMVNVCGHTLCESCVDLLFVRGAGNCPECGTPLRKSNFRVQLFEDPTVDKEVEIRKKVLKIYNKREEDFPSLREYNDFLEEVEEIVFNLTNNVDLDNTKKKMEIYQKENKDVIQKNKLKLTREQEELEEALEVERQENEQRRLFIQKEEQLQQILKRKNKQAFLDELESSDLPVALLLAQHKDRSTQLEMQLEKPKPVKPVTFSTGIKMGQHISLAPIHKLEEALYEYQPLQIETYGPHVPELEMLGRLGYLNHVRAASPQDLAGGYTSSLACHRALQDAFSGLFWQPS
- assay.details: CDK7 kinase inhibition assay (Caliper/LabChip EZ Reader)
- settings: read-out: CDK7 IC50; CDK7/Cyclin H/MAT1 6 nM, ATP 2 mM, 35 min at 27° C.
measured.property: IC50

INPUT: Return reported IC50. Input compound: Cc1noc(C)c1-c1ccc2c(-c3nc(N[C@@H]4CN(C(=O)OC(C)(C)C)CC[C@@H]4C)ncc3C(F)(F)F)cn(S(=O)(=O)c3ccccc3)c2n1 (single isomer, unassigned)
OUTPUT: < 0.03 µM

====

Reported pIC50 by item:
- System: COV318 cells
- assay.details: Inhibition of cell proliferation (CyQUANT Direct), COV318
- Assay type: cell-based, human
- settings: Homo sapiens, COV318, 72-hour
pIC50: −log10 of the molar value.

Example compounds with recorded pIC50:
{"compound": "Cc1noc(C)c1-c1ccc2c(-c3nc(N[C@@H]4CN(C(=O)OC(C)(C)C)CC[C@@H]4C)ncc3C(F)(F)F)cn(S(=O)(=O)c3ccccc3)c2n1 (single isomer, unassigned)", "system": "COV318 cells", "pIC50": "< 6.00"}
{"compound": "FC(F)(F)c1cnc(N[C@H]2CCCNC2)nc1-c1c[nH]c2nc(-c3nccs3)ccc12", "system": "COV318 cells", "pIC50": "> 7.00"}
{"compound": "Cc1nsc(-c2ccc3c(-c4nc(N[C@@H]5CC[C@@H](C)NC5)ncc4C(F)(F)F)c[nH]c3n2)n1", "system": "COV318 cells", "pIC50": "< 6.00"}

INPUT: Return reported pIC50. Input compound: Cc1noc(C)c1-c1ccc2c(-c3nc(N[C@H]4CCC(C)(C)NC4)ncc3C(F)(F)F)c[nH]c2c1
OUTPUT: 6.30 to 7.00

INPUT: Return reported pIC50. Input compound: Cc1nnnn1-c1ccc2c(-c3nc(N[C@H]4CCCNC4)ncc3C(F)(F)F)c[nH]c2n1
OUTPUT: 6.30 to 7.00

INPUT: Return reported pIC50. Input compound: O[C@H]1CNC[C@@H](Nc2ncc(C(F)(F)F)c(-c3c[nH]c4cc(-c5nccs5)ccc34)n2)C1
OUTPUT: 6.30 to 7.00

INPUT: Return reported pIC50. Input compound: CC1(C)CC[C@H](Nc2ncc(C(F)(F)F)c(-c3c[nH]c4cc(-c5nccs5)ccc34)n2)CN1
OUTPUT: 6.30 to 7.00

====

- system: CDK2/Cyclin E1 complex (Homo sapiens, UniProt P24941)
- assay.details: CDK2 kinase inhibition assay (Caliper/LabChip EZ Reader)
pIC50: −log10 of the molar value.
measured.property: pIC50

{"structure.smiles.string": "Cc1nocc1-c1ccc2c(-c3nc(N[C@H]4CCCNC4)ncc3C(F)(F)F)c[nH]c2c1", "system": "CDK2/Cyclin E1 complex (Homo sapiens, UniProt P24941)", "recorded.value": "< 6.30"}
{"structure.smiles.string": "Cc1nsc(-c2ccc3c(-c4nc(N[C@@H]5CC[C@@H](C)NC5)ncc4C(F)(F)F)c[nH]c3n2)n1", "system": "CDK2/Cyclin E1 complex (Homo sapiens, UniProt P24941)", "recorded.value": "< 6.30"}
{"structure.smiles.string": "Cc1nocc1-c1ccc2c(-c3nc(N[C@@H]4CNC[C@H](O)C4)ncc3C(F)(F)F)c[nH]c2n1", "system": "CDK2/Cyclin E1 complex (Homo sapiens, UniProt P24941)", "recorded.value": "< 6.30"}
{"structure.smiles.string": "Cc1noc(C)c1-c1ccc2c(-c3nc(N[C@@H]4CNC[C@H](O)C4)ncc3C(F)(F)F)c[nH]c2c1", "system": "CDK2/Cyclin E1 complex (Homo sapiens, UniProt P24941)", "recorded.value": "< 6.30"}
{"structure.smiles.string": "Cc1nscc1-c1ccc2c(-c3nc(N[C@H]4CCCNC4)ncc3C(F)(F)F)c[nH]c2c1", "system": "CDK2/Cyclin E1 complex (Homo sapiens, UniProt P24941)", "recorded.value": "< 6.30"}

INPUT: Return reported pIC50. Input compound: Cc1nocc1-c1ccc2c(-c3nc(N[C@@H]4CC[C@@H](C)NC4)ncc3C(F)(F)F)c[nH]c2n1
OUTPUT: < 6.30

INPUT: Return reported pIC50. Input compound: Cc1nnc(-c2ccc3c(-c4nc(N[C@H]5CC[C@H](C)NC5)ncc4C(F)(F)F)c[nH]c3n2)s1
OUTPUT: < 6.30

====

- Test system: COV318 cells
- assay.details: Inhibition of cell proliferation (CyQUANT Direct), COV318
- Format: cell-based, human
- settings: Homo sapiens, COV318, 72-hour
pIC50: −log10 of the molar value.
measured.property: pIC50

INPUT: GET pIC50 where system = COV318 cells and item = Cc1nocc1-c1ccc2c(-c3nc(N[C@H]4CC[C@H](C)NC4)ncc3C(F)(F)F)c[nH]c2n1
OUTPUT: < 6.00

INPUT: GET pIC50 where system = COV318 cells and item = Cc1noc(-c2ccc3c(-c4nc(N[C@H]5CCCNC5)ncc4C(F)(F)F)c[nH]c3c2)n1
OUTPUT: 6.30 to 7.00

INPUT: GET pIC50 where system = COV318 cells and item = Cc1nocc1-c1ccc2c(-c3nc(N[C@H]4CCC(C)(C)NC4)ncc3C(F)(F)F)n[nH]c2n1
OUTPUT: < 6.00

====

- Test system: COV318 cells
- assay.details: Inhibition of cell proliferation (CyQUANT Direct), COV318
- Type: cell-based, human
- settings: Homo sapiens, COV318, 72-hour
pIC50: −log10 of the molar value.
Reported pIC50 by item:

Example molecules with recorded pIC50:
{"structure.smiles.string": "Cc1noc(C)c1-c1ccc2c(-c3nc(N[C@H]4CCC(C)(C)NC4)ncc3C(F)(F)F)c[nH]c2n1", "system": "COV318 cells", "recorded.value": "> 7.00"}
{"structure.smiles.string": "Cc1noc(C)c1-c1ccc2c(-c3nc(N[C@@H]4CNC[C@H](C(=O)N(C)C)C4)ncc3C(F)(F)F)c[nH]c2c1", "system": "COV318 cells", "recorded.value": "< 6.00"}
{"structure.smiles.string": "Cc1noc(C)c1-c1ccc2c(-c3nc(N[C@@H]4CNC[C@H](C(=O)N(C)C)C4)ncc3C(F)(F)F)c[nH]c2n1", "system": "COV318 cells", "recorded.value": "< 6.00"}
{"structure.smiles.string": "C[C@@H]1CC[C@@H](Nc2ncc(C(F)(F)F)c(-c3c[nH]c4nc(-c5nnnn5C)ccc34)n2)CN1", "system": "COV318 cells", "recorded.value": "6.00 to 6.30"}
{"structure.smiles.string": "Cc1noc(C)c1-c1ccc2c(-c3nc(N[C@@H]4CC[C@@H](C)NC4)ncc3C(F)(F)F)c[nH]c2n1", "system": "COV318 cells", "recorded.value": "6.30 to 7.00"}

Now for a further molecule.
INPUT: GET pIC50 where system = COV318 cells and item = Cc1noc(C)c1-c1ccc2c(-c3nc(N[C@H]4CCC(C)(C)NC4)ncc3C(F)(F)F)n[nH]c2n1
OUTPUT: < 6.00

Where do these numbers come from? They come from patent US11311542B2.
